- Target desc: T1, recombinant protein containing hST2 extracellular domain with mouse antibody heavy chain Fc tag (hST2-ECD-mFc) (human)
- T1 construct: Used for SPR and for ELISA of chimeric and humanized antibodies; also called human ST2 antigen
- T1 chain: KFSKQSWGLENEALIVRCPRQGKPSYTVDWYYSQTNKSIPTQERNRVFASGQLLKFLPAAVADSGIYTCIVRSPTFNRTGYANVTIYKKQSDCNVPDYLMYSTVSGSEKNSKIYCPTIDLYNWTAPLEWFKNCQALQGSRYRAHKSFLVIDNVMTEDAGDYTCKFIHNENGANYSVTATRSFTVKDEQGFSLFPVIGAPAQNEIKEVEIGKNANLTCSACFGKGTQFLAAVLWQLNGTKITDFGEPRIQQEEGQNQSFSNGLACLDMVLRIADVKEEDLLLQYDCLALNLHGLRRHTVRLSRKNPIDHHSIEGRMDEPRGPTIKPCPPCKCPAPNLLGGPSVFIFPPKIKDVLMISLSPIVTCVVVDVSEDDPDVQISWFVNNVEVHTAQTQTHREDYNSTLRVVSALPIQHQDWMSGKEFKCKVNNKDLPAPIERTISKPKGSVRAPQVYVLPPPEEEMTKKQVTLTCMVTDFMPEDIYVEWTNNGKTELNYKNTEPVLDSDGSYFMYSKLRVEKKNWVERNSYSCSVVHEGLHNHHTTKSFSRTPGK
- Procedure text: ELISA, plate coated with hST2-ECD-mFc
Endpoint label: pEC50
For clarity, pEC50 is expressed as the negative log10 of concentration in mol/L.

Example cases with answers are listed next.
Binder	pEC50
Chimeric 17E2 (antibody, human IgG2, kappa, V domains shown, also called xi17E2) VH: QVQLQQSGAELVRPGASVTLSCKASGYTFTDYEMHWVKQTPVLGLEWIGAIDPETGDTAYNQKFKGKATLTADKSSSTAYMELSSLASEDSAVYYCIRVDSNYDYFDYWGQDTTLTVSS VL: DIVLTQSPPILSASPGEKVTMTCRASSSVSYMHWYQQKPGSSPKPWIYDTSNLASGVPARFSGSGSGTSYSLTISRVEAEDAATYYCQQWSSNPLTFGAGTKLELKR	9.63
Chimeric 26A1 (antibody, human IgG2, kappa, V domains shown, also called xi26A1) VH: QVQLQQSGAELVRPGASVTLSCKASDYIFTDSEIHWVKQTLVHGLEWIGAIDPETGDTAYNQKFKGKATLTADKSSSTAYMELSSLTSEGSAVYYCSGSTTDCYFAYWGQGTTLTVSS VL: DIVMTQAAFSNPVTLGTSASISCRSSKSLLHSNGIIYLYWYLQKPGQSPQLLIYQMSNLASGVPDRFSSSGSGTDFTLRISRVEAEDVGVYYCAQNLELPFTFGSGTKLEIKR	9.76
Chimeric 3C6 (antibody, human IgG2, kappa, V domains shown, also called xi3C6) VH: QVQLQQSGAEVVRPGASVTLSCKASDYTITDYEMHWVKQTPVHGLEWIGAIDPETGDTAYSQNFKGKATLTADESSSTAYMELSSLTSEDSAVYYCSRSATDYYFASWGQGTTLTVSS VL: DIVMTQAAISNPVTLGTSASMSCRSSKSLLHSNGITYLYWYLQKPGHSPQLLIYQMSNLASGVPDRFSSSGSGTDFTLKISRVEAEDVGVYYCAQNLELPFTFGSGTKLEIKR	9.80
Chimeric 7D1 (antibody, human IgG2, kappa, V domains shown, also called xi7D1) VH: QVQLQQSGAELVRPGASVTLSCKASGYTFTDYEMHWVKQTPVHGLDWIGTIDPETGDTAYNQKFKGRATLTADKSSSTAYMELSSLTSEDSAVYYCTRYSYTNSPYGMDYWGQGTSVTVSS VL: DVVMTQTPKFLLVSAGDRVTITCKASQSVSNDVAWYQQKPGQSPKLLIYYASNRYTGVPDRFTGSGYGTDFTFTINTVQAEDLAVYFCQQDYSSPYTFGGGTKLEIKR	9.72
Chimeric 31C8 (antibody, human IgG2, kappa, V domains shown, also called xi31C8) VH: QVQLQQSGPELVRPGASVTLSCKASGYIFIDSEMHWVKQTPVHGLEWIGAIDPETGDTVYNQKFKGKATLTADKSSSTASMELSSLTSEDSAVYYCTGSTTDYYFAYWGQGTTLTVSS VL: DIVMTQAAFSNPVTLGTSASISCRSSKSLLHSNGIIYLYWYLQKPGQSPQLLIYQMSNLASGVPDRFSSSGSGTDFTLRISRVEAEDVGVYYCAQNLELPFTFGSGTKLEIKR	9.74

Here is another binder to look at.
Exercise: Request the reported pEC50 associated with Chimeric 8F4 (antibody, human IgG2, kappa, V domains shown, also called xi8F4) VH: QVQLQQSGAELVRPGASVTLSCKASGHIFTDYEMQWVKQTPVHGLEWIGAFDPETGDTAYNQKFKGKATLTADKSSSTAYMELSSLTSEDSAVYYCSGSTTDYYFAYWGQGTSLTVSS VL: DVVMTQTAFSNPVTLGTSASISCRSSKSLLHSNGIIYLYWYLQKPGQSPQLLIYQMSNLASGVPDRFSSSGSGTDFTLRISRVEAEDVGVYYCAQNLELPFTFGSGTKLEIKR
Solution: 9.76
